Below are IC50 values for ROCK2 (Homo sapiens, UniProt O75116) collected from several publications.
Give the number; nM is assumed, so skip it.

Solved entries:
COc1cc(C(=O)NCc2cccc(C#N)c2)ccc1-c1cn[nH]c1 :: 8.24
CC(C)CC1NC(=O)N([C@H]2C[C@@]3(C[C@H](Oc4nn(C5CC5)cc4C(N)=O)C3)C2)C1=O (stereo partly shown) :: 132

Would you kindly look at the next entry?
Provide the reported IC50 (system: ROCK2 (Homo sapiens, UniProt O75116)) for CC(C)(O)COc1ccc2nc(NC(=O)Cc3ccc(Oc4ncccc4C(N)=O)cc3)sc2c1
Sequence (O75116 whole entry, species assumed): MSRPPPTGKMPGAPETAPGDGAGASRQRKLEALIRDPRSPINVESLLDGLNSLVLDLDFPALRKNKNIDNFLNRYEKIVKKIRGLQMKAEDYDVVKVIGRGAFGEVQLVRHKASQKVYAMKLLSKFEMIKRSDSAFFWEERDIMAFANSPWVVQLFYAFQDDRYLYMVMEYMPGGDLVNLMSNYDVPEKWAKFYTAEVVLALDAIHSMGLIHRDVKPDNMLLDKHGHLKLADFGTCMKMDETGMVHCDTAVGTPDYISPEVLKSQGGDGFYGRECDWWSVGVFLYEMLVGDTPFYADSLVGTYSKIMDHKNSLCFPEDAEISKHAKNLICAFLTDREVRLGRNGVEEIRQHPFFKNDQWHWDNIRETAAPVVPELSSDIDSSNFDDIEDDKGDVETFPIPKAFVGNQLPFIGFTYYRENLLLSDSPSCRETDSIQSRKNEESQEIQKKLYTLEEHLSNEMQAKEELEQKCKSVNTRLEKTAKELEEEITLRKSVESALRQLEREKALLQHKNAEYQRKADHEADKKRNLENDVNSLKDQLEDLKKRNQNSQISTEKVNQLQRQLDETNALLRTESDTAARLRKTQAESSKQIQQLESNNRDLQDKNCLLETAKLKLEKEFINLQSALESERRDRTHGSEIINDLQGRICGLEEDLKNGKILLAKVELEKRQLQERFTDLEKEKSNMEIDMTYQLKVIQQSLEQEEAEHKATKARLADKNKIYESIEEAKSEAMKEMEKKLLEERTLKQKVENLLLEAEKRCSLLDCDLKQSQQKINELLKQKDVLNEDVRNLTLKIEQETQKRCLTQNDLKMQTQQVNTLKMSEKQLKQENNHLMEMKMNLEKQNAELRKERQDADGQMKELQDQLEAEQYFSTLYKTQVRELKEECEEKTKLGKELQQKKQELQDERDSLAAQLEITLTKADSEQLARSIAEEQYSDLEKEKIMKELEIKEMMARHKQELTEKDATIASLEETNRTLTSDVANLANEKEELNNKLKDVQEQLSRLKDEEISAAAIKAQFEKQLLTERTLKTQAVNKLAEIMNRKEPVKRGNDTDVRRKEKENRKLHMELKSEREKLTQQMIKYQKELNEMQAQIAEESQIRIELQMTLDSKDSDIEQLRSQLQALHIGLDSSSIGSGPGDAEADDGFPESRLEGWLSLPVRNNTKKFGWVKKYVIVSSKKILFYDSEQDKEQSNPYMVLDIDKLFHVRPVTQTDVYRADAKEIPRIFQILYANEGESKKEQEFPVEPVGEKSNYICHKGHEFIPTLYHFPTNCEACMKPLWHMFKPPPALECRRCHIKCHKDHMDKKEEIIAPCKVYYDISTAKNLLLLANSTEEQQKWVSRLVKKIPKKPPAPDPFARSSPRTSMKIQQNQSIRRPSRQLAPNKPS
74

* * *

Multiple publications report pIC50 for ROCK2 (Homo sapiens, UniProt O75116); what follows is a combined list.
pIC50: −log10 of the molar value.

Below: 2 compounds and their reported pIC50.
CC(c1ccccc1)n1ccn(-c2ccc(-c3cn[nH]c3)cc2)c1=O (single isomer, unassigned; (-)) :: 6.70 to 7.70
COc1cccc(C(CO)n2ccn(-c3ccc(-c4cn[nH]c4)cc3)c2=O)c1 (single isomer, unassigned) :: > 8.70

Provide measured pIC50 on ROCK2 (Homo sapiens, UniProt O75116) for [H][C@]1(c2n[nH]c(=O)c3ccccc32)C[C@]2(C[C@@H](NC(=O)c3ccc(-c4cnco4)cc3)C2)C1 (stereo partly shown) please.
7.00 to 7.82

# lookup: ROCK2 (Homo sapiens, UniProt O75116) pIC50, key = COc1cccc(CN2C(=O)N(c3ccc(-c4cn[nH]c4)cc3)CC23CCN(C(=O)OC(C)C)CC3)c1
> 8.52

* * *

Compiled IC50 measurements on ROCK2 (Homo sapiens, UniProt O75116) taken from the literature.

Example entries begin here.
[H][C@]1(c2n[nH]c(=O)c3ccccc32)C[C@]2(C[C@@H](NC(=O)c3ccc(Br)cn3)C2)C1 (some centres unmarked) :: 0.0151 to 0.1 µM
COc1cccc(C(C)n2ccn(-c3ccc(-c4cn[nH]c4)c(OC)n3)c2=O)c1 (single isomer, unassigned) :: < 0.002 µM
COc1cccc(CN2C(=O)N(c3ccc(-c4cn[nH]c4)c(OC)c3)CC2CO)c1 (single isomer, unassigned) :: 0.2 to 2 µM
COc1cc(-c2cn[nH]c2)ccc1N1CCN(Cc2cccc(F)c2)C1=O :: 0.0201 to 0.2 µM
CCc1cc(N2CCN(Cc3ccccc3F)C2=O)ccc1-c1cn[nH]c1 :: 0.0201 to 0.2 µM
Cc1c(C(=O)NC2CC3(C2)CC(c2n[nH]c(=O)c4ccccc24)C3)cnn1-c1ccccc1 (centres unmarked) :: 0.00201 to 0.005 µM
O=C(O)C1CN(Cc2cccc(F)c2)C(=O)N1c1ccc(-c2cn[nH]c2)cc1 (centres unmarked) :: 0.2 to 2 µM
COc1cccc(CNC(=O)Nc2ccc3c(n2)OCc2n[nH]cc2-3)c1 :: 0.01 to 0.1 µM
[H][C@]1(c2n[nH]c(=O)c3ccccc32)C[C@]2(C[C@@H](NC(=O)c3ccc4c(c3)COc3cncnc3-4)C2)C1 (some centres unmarked) :: 0.0151 to 0.1 µM
CC(C)(O)Cn1nc(C(=O)N[C@H]2CC3(C2)C[C@H](c2n[nH]c(=O)c4ccccc42)C3)c2ccc(-c3ccccc3)cc21 (some centres unmarked) :: 0.00201 to 0.005 µM

# ---- query compound ----
GET IC50 where system = ROCK2 (Homo sapiens, UniProt O75116) and item = COc1cccc(CN2C(=O)N(c3ncc(-c4cn[nH]c4)c(OC)n3)CC23CCN(C(=O)CN(C)C)CC3)c1
< 0.003 µM

* * *

Literature roundup of ROCK2 (Homo sapiens, UniProt O75116) data, read-out IC50.

Record excerpt, results attached:
COc1cccc(C(CCO)NC(=O)c2cccc(-c3ccc4[nH]ncc4c3)c2)c1 (stereo not shown) :: < 1 nM
COc1cccc(NC2C(=O)N(c3ccc(-c4cn[nH]c4)cc3)CC23CN(C(=O)C2COC2)C3)c1 (stereo not shown) :: 250 to 3000 nM
Cc1nn(-c2ccc(-c3cn[nH]c3)cc2)c(=O)n1Cc1cccc(OC(F)F)c1 :: 50 to 250 nM
COc1cccc(CN2C(=O)N(c3ccc(-c4cn[nH]c4)c(OC)n3)CC23CCN(CCO)CC3)c1 :: < 3 nM
[H][C@]1(c2n[nH]c(=O)c3ccccc32)C[C@]2(C[C@@H](NC(=O)c3ccc4c(ccn4C)c3)C2)C1 (stereo partly shown) :: 5.1 to 15 nM
COc1cc(F)cc(CN2C(=O)CN(c3ccc(-c4cn[nH]c4)cc3)C2=O)c1 :: 2.1 to 20 nM

Next, consider the following compound.
Please report IC50 for the following compound: COc1cc(CN2C(=O)N(c3ccc(-c4cn[nH]c4)cc3)CC23CCNCC3)ccc1F
< 3 nM

* * *

Below: molecules with IC50 recorded for ROCK2 (Homo sapiens) in separate published works.

Example molecules with recorded IC50:
Cc1nn(CCc2ccccc2)c(=O)n1-c1ccc(-c2cn[nH]c2)cc1 :: 250 to 2000 nM
Cn1c(C(=O)N2CC(F)(F)C2)cc2c1CN(c1nc(Nc3ccc(-c4cn[nH]c4)cc3)c3cccn3n1)CC2 :: 50 to 500 nM
O=C(N[C@H]1CC2(C1)C[C@H](c1n[nH]c(=O)c3ccccc31)C2)c1cnn2cc(N3CCCC3=O)ccc12 (some centres unmarked) :: 5.1 to 15 nM

Here's the next entry for you.
Item CN(C)CCC(NC(=O)N1CCc2cc(-c3cn[nH]c3)ccc21)c1ccccc1 (centres unmarked) : provide IC50
50 to 500 nM

* * *

Reported pIC50 against ROCK2 (Homo sapiens), gathered from multiple publications, appears below.
pIC50: −log10 of the molar value.

O=C(NC1CC2(C1)CC(c1n[nH]c(=O)c3ccccc13)C2)c1cnn2cc(-n3ccc(=O)cc3)ccc12 (centres unmarked) :: 7.00 to 7.82
COc1cccc(Cn2nnn(-c3ccc(-c4cn[nH]c4)cc3)c2=O)c1 :: 7.30 to 8.30
COc1cc(F)cc(CN2C(=O)N(c3ccc(-c4cn[nH]c4)cn3)C[C@H]2CO)c1 :: 7.70 to 8.68

Identify measured pIC50 associated with CS(=O)(=O)c1ccc(CC2CN(c3ccc(-c4n[nH]c(=O)c5ccccc45)cc3)C(=O)O2)cc1 (centres unmarked)
6.30 to 7.00

Supply reported pIC50 belonging to this compound: Cn1cc(-c2ccc3c(C(=O)NC4CC5(C4)CC(c4n[nH]c(=O)c6ccccc46)C5)nn(CC(C)(C)O)c3c2)nn1 (centres unmarked)
8.30 to 8.70

* * *

Let's look at some IC50 data for ROCK2 (Homo sapiens, UniProt O75116) that I collected from the literature.

Some compounds with recorded IC50:
COc1cc(F)cc(CN2C(=O)N(c3ccc(-c4cn[nH]c4)cc3)CC23CCN(C2COC2)CC3)c1 :: < 3 nM
O=C1N(Cc2ccccc2)CC(CO)N1c1ccc(-c2cn[nH]c2)cc1 (stereo not shown) :: 20.1 to 200 nM
[H][C@]1(c2n[nH]c(=O)c3ccccc32)C[C@]2(C[C@@H](NC(=O)c3cc4cccc(C)c4[nH]3)C2)C1 (stereo partly shown) :: 2.01 to 5 nM
COc1cccc(C(CC(C)(C)O)N2CCN(c3ccc(-c4cn[nH]c4)c(OC)c3)C2=O)c1 (stereo not shown) :: 200 to 2000 nM

Provide IC50, tested on ROCK2 (Homo sapiens, UniProt O75116), for [H][C@]1(c2n[nH]c(=O)c3ccccc32)C[C@]2(C[C@@H](NC(=O)c3ccc(C(F)(F)F)nc3)C2)C1 (stereo partly shown) .
100 to 2100 nM

// output IC50; input COc1nc(N2CCC3(Cc4ccccc4C3)C2=O)ccc1-c1cn[nH]c1 ; system ROCK2 (Homo sapiens, UniProt O75116)
< 3 nM

Find the measured IC50 of O=C(C1CCN(c2ccc(-c3n[nH]c(=O)c4ccccc34)cc2)C1=O)N1Cc2ccccc2C1 (stereo not shown) with ROCK2 (Homo sapiens, UniProt O75116) as test system.
500 to 2000 nM

* * *

pIC50: −log10 of the molar value.
Several reports have described pIC50 for ROCK2 (Homo sapiens); a selection of those results is presented here.

Example cases with answers are listed next.
Cn1nc(C(=O)N[C@H]2CC3(C2)C[C@H](c2n[nH]c(=O)c4ccccc42)C3)c2ccccc21 (single isomer, unassigned) :: 8.30 to 8.70
COC(=O)N1CCC2(CC1)CN(c1ccc(-c3cn[nH]c3)cc1)C(=O)C2Nc1cccc(OC)c1 (stereo not shown) :: 5.52 to 6.60
COc1cccc(CN2C(=O)N(c3ccc(-c4cn[nH]c4)cc3)C(=O)C2CO)c1 (stereo not shown) :: 5.70 to 6.70

# evaluate next
Write down measured pIC50 (ROCK2 (Homo sapiens)) for this compound. [H][C@]1(c2n[nH]c(=O)c3ccccc32)C[C@]2(C[C@@H](NC(=O)c3cc4c(Cl)ccc(C)c4[nH]3)C2)C1 (stereo partly shown)
8.70 to 9.70
